- System: vector-only (V/O) CHO-K1 cells
- PROTOCOL_TEXT: Dose-response dual-addition calcium fluorescence assay on vector-only cells
- Assay type: cell-based
- RUN_PARAMETERS: Cricetulus griseus, CHO-K1; V/O cells, first addition
RECORDED_ENDPOINT: EC50

Summary line: C/N=c1\[nH]c2cc([N+](=O)[O-])c([N+](=O)[O-])cc2[nH]\c1=N\C , vector-only (V/O) CHO-K1 cells, reported EC50 = 1350 nM

###

- Test system: Human dermal fibroblasts (HDF) cells
- PROTOCOL_TEXT: Cytotoxicity assay (resazurin)
- Format: cell-based
- RUN_PARAMETERS: Human dermal fibroblasts cells; tested at 20 μcool L^−1
Recorded HDF average % growth inhibition for the following compounds
Write the value in % as a bare number.

Use the examples below as a reference point.
- COMPOUND: "COc1ccc(S(=O)(=O)Nc2ccc(O)c(Sc3nc4ccccc4s3)c2)cc1"
  MEASURED_ON: "Human dermal fibroblasts (HDF) cells"
  HDF average % growth inhibition / %: "−2.817"
- COMPOUND: "Cc1ccc(S(=O)(=O)NN2C(=O)C(=Cc3ccc(F)cc3)SC2=S)cc1"
  MEASURED_ON: "Human dermal fibroblasts (HDF) cells"
  HDF average % growth inhibition / %: 2.277
- COMPOUND: "O=C1C=CC(Nc2ccc([N+](=O)[O-])cc2)C1Nc1ccc([N+](=O)[O-])cc1 (centres unmarked)"
  MEASURED_ON: "Human dermal fibroblasts (HDF) cells"
  HDF average % growth inhibition / %: 4.83
- COMPOUND: "Cc1ccc(S(=O)(=O)NN2C(=O)C(=Cc3cccc4ccccc34)SC2=S)cc1"
  MEASURED_ON: "Human dermal fibroblasts (HDF) cells"
  HDF average % growth inhibition / %: 8.117
- COMPOUND: "CCN1C=C/C(=C\\C=C\\c2cc[n+](CC)c3ccccc23)c2ccccc21"
  MEASURED_ON: "Human dermal fibroblasts (HDF) cells"
  HDF average % growth inhibition / %: 9.037
- COMPOUND: "C[C@@](O)(C#Cc1ccccc1)c1ccc(N2CCCCC2)c(F)c1"
  MEASURED_ON: "Human dermal fibroblasts (HDF) cells"
  HDF average % growth inhibition / %: "−1.773"
- COMPOUND: "O=C(O)COc1ccc(Br)cc1/C=N/Nc1cccc2cccnc12"
  MEASURED_ON: "Human dermal fibroblasts (HDF) cells"
  HDF average % growth inhibition / %: 7.477

Now let's try a different one.
For reference, reported HDF average % growth inhibition for CCCC[n+]1c(/C=C2/C=CN(CC)c3ccc(C)cc32)ccc2ccccc21 stands at −9.767
